Details: 298.15 K; 85.9 kPa; Liquid; Capillary tube (Ostwald / Ubbelohde) method
measured-parameter: viscosity (mPa·s)

>>> df
                 compound  measured_parameter  endpoint_value
0  C1COCCO1 [1,4-dioxane]           viscosity           1.158

a: C[S+](C)[O-] [dimethyl sulfoxide]
b: CC(=O)N(C)C [N,N-dimethylethanamide]
c: C1CCOC1 [tetrahydrofuran]
**Query** # sort list by recorded viscosity, greatest to least Respond with an ordered listing of the labels, as requested.
**Result** a, b, c

---

Test: refractive index (Na D-line) (dimensionless)
Details: 298.15 K; 85.9 kPa; Liquid; Standard Abbe refractometry
measured-parameter: refractive index

>>> df
                               compound  endpoint_value
0     C[S+](C)[O-] [dimethyl sulfoxide]          1.4762
1             C1CCOC1 [tetrahydrofuran]          1.4047
2  CC(=O)N(C)C [N,N-dimethylethanamide]           1.436
3                C1COCCO1 [1,4-dioxane]          1.4188

---

Conditions: 298.15 K; 85.9 kPa; Liquid; Vibrating tube method
measured-parameter: mass density (kg/m3)

>>> df
                               compound  measured_parameter  endpoint_value
0  CC(=O)N(C)C [N,N-dimethylethanamide]        mass density          936.57
1                              C1COCCO1        mass density         1027.93
2             C1CCOC1 [tetrahydrofuran]        mass density          882.02
3     C[S+](C)[O-] [dimethyl sulfoxide]        mass density         1095.29
